- Experimental protocol: Primary qHTS for inhibitors of SARS-S pseudo-typed particle cell entry (AID 1479145); note: nearly all actives have a fitted effect of over 45% in size
- Measurement setup: SARS-S pseudotyped particle cell entry, luciferase reporter; series mostly up to 57.1 µM
Records with an inconclusive call do not appear. The source made the active and inactive calls. Calls come from the whole dose curve. Bridge positions count the residues as written; N and C are the ends. Square brackets hold non-standard residues; d marks the D form. Peptide text beside a SMILES is read from it. Orn = NCCC[CH](N)C(=O)O; Mpa = O=C(O)CCS
Outcomes: T = active, F = inactive

* CN(CC(O)CO)C(=O)c1c(I)c(NC(=O)C(CO)CO)c(I)c(C(=O)N(C)CC(O)CO)c1I (stereo not drawn) | F
* C[C@H](CCC(=O)O)[C@H]1CC[C@H]2[C@@H]3[C@H](O)C[C@@H]4C[C@H](O)CC[C@]4(C)[C@H]3C[C@H](O)[C@]12C | F
* CCCCCCCCCCCC[n+]1ccc2ccccc2c1 | T
* COC(=O)c1ccccc1O | F
* C=C1/C(=C/C=C2\CCC[C@]3(C)[C@@H]([C@H](C)CCCC(O)(C(F)(F)F)C(F)(F)F)CC[C@@H]23)C[C@@H](O)C[C@@H]1O | F
* CC/C=C\C/C=C\C/C=C\C/C=C\C/C=C\C/C=C\CCC(=O)O | F
* C[C@]12CCC3c4ccc(OS(=O)(=O)O)cc4CCC3C1CCC2=O (stereo partly drawn) | F
* Cc1ncc(COP(=O)(O)O)c(C)c1O | F
* O=C(N[C@H]1CCS[C@H]2CCC[C@@H](C(=O)O)N2C1=O)[C@@H](S)Cc1ccccc1 | F
* C=CCOc1ccc(CC(=O)O)cc1Cl | F
* O1[As]2O[As]1O2 | F
* C=C[C@]1(C)C[C@@H](OC(=O)CSCCN(CC)CC)[C@]2(C)[C@H](C)CC[C@]3(CCC(=O)[C@H]32)[C@@H](C)[C@@H]1O | T
* Cc1cc(Nc2ccccc2C(=O)O)ccc1Cl | F
* CCOc1ccc(CC2NC(=O)CCSSCC(C(=O)N3CCCC3C(=O)NC(CCCN)C(=O)NCC(N)=O)NC(=O)C(CC(N)=O)NC(=O)C(C(C)O)NC(=O)C(C(C)CC)NC2=O)cc1 (stereo not drawn) ([Mpa]Y(Et)ITNCP[Orn]G-NH2; disulfide 1-6; configuration not given here) | F
* CCCCOc1ccc(C[N+]2(C)C3CCC2CC(OC(=O)[C@H](CO)c2ccccc2)C3)cc1 (stereo partly drawn) | F
* FC(F)(F)C(F)(F)C(F)(F)C(F)(F)C(F)(F)C(F)(F)F | F
* CC(C)(C)NC(=O)[C@H]1CC[C@H]2[C@@H]3CC=C4C=C(C(=O)O)CC[C@]4(C)[C@H]3CC[C@]12C | F
* CC(C)=C/C(C)=N\Nc1nncc2ccccc12 | F
* CCCCC(=O)O | F
* C[C@H]1C[C@H]2[C@H]3CCC4=CC(=O)C=C[C@]4(C)[C@@]3(F)[C@@H](O)C[C@]2(C)[C@@]1(OC(=O)c1ccccc1)C(=O)CO | F
* O=C(O)c1ccccc1C(c1ccc(O)cc1)c1ccc(O)cc1 | F
* CC(=O)OCC1=C(C(=O)O)N2C(=O)[C@@H](NC(=O)CC#N)[C@H]2SC1 | F
* CC(C)C[C@H](NC(=O)[C@@H](Cc1c[nH]c2ccccc12)NC(=O)[C@H](Cc1ccc(O)cc1)NC(=O)[C@H](CO)NC(=O)[C@H](Cc1c[nH]c2ccccc12)NC(=O)[C@H](Cc1cnc[nH]1)NC(=O)[C@@H]1CCC(=O)N1)C(=O)N[C@@H](CCCN=C(N)N)C(=O)N1CCC[C@H]1C(=O)NCC(N)=O | F
* CCCCCCCCCC(=O)OC1(c2ccc(Cl)cc2)CCN(CCCC(=O)c2ccc(F)cc2)CC1 | F
* CC[C@@]1(O)C(=O)OCc2c1cc1n(c2=O)Cc2cc3c([N+](=O)[O-])cccc3nc2-1 | F
* CC[C@H]1C2C[C@H]3[C@@H]4N(C)c5ccccc5[C@@]45C[C@H](C2[C@H]5O)N3[C@@H]1O (stereo partly drawn) | F
* CN1C(=O)[C@]23C[C@H]4C(C)(C)[C@]5(CNc6c5ccc5c6OC=CC(C)(C)O5)C[C@@]41CN2CC[C@@]3(C)O | F
* CC(C)[C@H]1CC[C@H](C)C[C@H]1O | F
* OC[C@H]1O[C@@H](c2ccc(F)c(Cc3cc4ccccc4s3)c2)[C@H](O)[C@@H](O)[C@@H]1O | F
* COCC1=C(C(=O)OC(C)OC(=O)OC(C)C)N2C(=O)[C@@H](NC(=O)/C(=N/OC)c3csc(N)n3)[C@H]2SC1 (stereo partly drawn) | F
* CC(/C=C1\SC(=S)N(CC(=O)O)C1=O)=C\c1ccccc1 | F
* CN(CC(=O)N1CCOCC1)Cc1c(Cl)cccc1NC(=O)c1ccccc1 | F
* CO[C@@H]1[C@H](C)OC(O[C@H]2CC(Oc3cc4cc5c(c(O)c4c(O)c3C)C(=O)[C@@H](OC3C[C@@H](OC4C[C@H](OC6C[C@](C)(O)[C@@H](OC(C)=O)[C@H](C)O6)[C@@H](O)[C@H](C)O4)[C@H](O)[C@@H](C)O3)[C@H]([C@@H](OC)C(=O)[C@@H](O)[C@H](C)O)C5)O[C@@H](C)[C@H]2OC(C)=O)C[C@@H]1O (stereo partly drawn) | F

----------
- Experimental protocol: Cell Viability - LYMP2-016 (AID 984);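 note: cells exposed to compound for 24 hours at 37 °C; nearly all actives have a fitted effect of over 55% in size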
- Measurement setup: LYMP2-016 lymphoblastoid cell viability, qHTS; series mostly up to 92.2 µM
Inconclusive results are not listed. Active and inactive are the calls of the source. Calls come from the whole dose curve; as a rule, active = well fitted cell-killing curve with a large enough effect; inconclusive = small, poorly fitted or top-dose-only effect; inactive = flat fitted curve, though single readings scatter.
Outcomes: yes (active), no (inactive)

• CCCCCCCCCc1ccc(O)cc1 = no
• Cc1ccc2ccccc2c1 = no
• ClC(Cl)=C(Cl)Cl = no
• ClC(Cl)=C(c1ccc(Cl)cc1)c1ccc(Cl)cc1 = no
• c1ccc(-c2ccccc2)cc1 = no
• Nc1c(Cl)c(Cl)nc(C(=O)O)c1Cl = no
• N#CCCCl = no
• COc1ccc(N)cc1 = no
• C=CC(=O)OCC = no
• c1ccc(N=Nc2ccccc2)cc1 = no
• Brc1ccc(Oc2cc(Br)c(Br)cc2Br)c(Br)c1 = no
• CC(Cl)Cl = no
• C=CCOC(=O)c1ccccc1N = no
• CNC(=O)O/N=C/C(C)(C)SC = no
• ClC1=C(Cl)C2(Cl)C3C4CC(C5OC45)C3C1(Cl)C2(Cl)Cl (stereo unspecified) = yes
• c1nc[nH]n1 = no
• Nc1ccc(Br)cc1 = no
• C=CC1CC=CCC1 (stereo unspecified) = no
• C=CCc1ccc2c(c1)OCO2 = no
• O=C(Cl)C(Cl)(Cl)Cl = no
• Cc1ccc([N+](=O)[O-])cc1C = no

----------
- Experimental protocol: HPAF-II Cancer Cell Toxicity qHTS against the NCATS CANVASS Library (AID 1347346); note: nearly all actives have a fitted effect of over 55% in size
- Measurement setup: HPAF-II viability, CellTiter-Glo ATP luminescence, 72 h; series mostly up to 38.3 µM
Inconclusive results are not listed. The source made the active and inactive calls. Calls come from the whole dose curve; as a rule, active = well fitted cell-killing curve with a large enough effect; inconclusive = small, poorly fitted or top-dose-only effect; inactive = flat fitted curve, though single readings scatter. Starred links: 1 amine or outer side, 2 acyl side, 3 side chain; linkers in the order of their positions; H or OH if unused. Positions of bridges follow the written chain, without caps; N, C: chain ends. Non-standard residues stand in square brackets, D forms with d. Residues, ends and D or L forms follow the SMILES beside them. ξ: configuration not given here. *: point of attachment. X3 = C[C@@H](Oc1ccc([C@H](N[*:1])C(=O)[*:2])cc1)[C@]1(/C=C\C(=O)[*:3])CO1; d(aIle) = CC[C@H](C)[C@@H](N)C(=O)O; X2 = CC(C)[C@@H](O)C(C)C(=O)*; ξNMeF = CNC(Cc1ccccc1)C(=O)O; ξT = CC(O)C(N)C(=O)O; ξS = NC(CO)C(=O)O
Outcomes: active, inactive

- CO[C@H]([C@@H](C)[C@H]1O[C@]1(C)C[C@H](C)/C=C/C=C(\C)[C@H]1O[C@@H](CC(=O)O)CC[C@@H]1C)[C@@H](C)O: active
- CC[C@H](C)[C@H]1NC(=O)[C@@H](NC(=O)C(C)[C@H](O)C(C)C)[C@@H](C)OC(=O)C2COC(=O)CNC(=O)/C=C\[C@]3(CO3)[C@@H](C)Oc3ccc(cc3)[C@H](NC1=O)C(=O)N(C)C(Cc1ccccc1)C(=O)NC(C(C)O)C(=O)N2 (stereo partly specified) (X2-T[d(aIle)][X3][ξNMeF][ξT][ξS]; ester 1-C; linker 3-6 via G): inactive
- C/C=C1/CN2CC[C@@]34c5ccccc5N(C)[C@@H]3[C@@H]2C[C@@H]1[C@H]4C(=O)OC: inactive
- C=CC(C)(C)[C@@]12C[C@H]3C(=O)N/C(=C/c4cnc[nH]4)C(=O)N3[C@@H]1Nc1ccccc12: inactive
- C[N+](C)(C)CCc1c[nH]c2ccccc12: inactive
- C=C[C@]12C=CCN3CC[C@@]4(c5ccccc5NC(=O)[C@@H]4C1)[C@@H]32: inactive

Source of measurements: PubChem BioAssay (NCATS)
